The entries below are paired with their reported log10 of microsomal CLint.
- method.description: Clearance in human liver microsomes
- Assay type: ADME, Microsome
- test.settings: read-out: CLH
parameter.measured: log10 of microsomal CLint (log10 of the value in µL/min/mg)

1. COC[C@@H](Oc1cc(C[C@@H]2C[S@@+]([O-])C[C@H](NCc3cccc(C(C)(C)CO)c3)[C@H]2O)cc(F)c1N)C(F)(F)F ... 1.90
2. [2H]C([2H])(N[C@H]1C[S@+]([O-])C[C@@H](Cc2cc(F)c(N)c(O[C@H](COC)C(F)(F)F)c2)[C@@H]1O)c1cccc(C(C)(C)C)c1 ... 2.78
3. COC[C@@H](Oc1cc(C[C@@H]2C[S@@+]([O-])C[C@H](N[C@H](C)c3cccc(C(C)(C)C)c3)[C@H]2O)cc(F)c1N)C(F)(F)F ... 2.78
4. COC[C@@H](Oc1cc(C[C@@H]2C[S@@+]([O-])C[C@H](NCc3cccc(C(C)(C)C)c3)[C@H]2O)cc(F)c1N)C(F)(F)F ... 2.70
5. COC[C@@H](Oc1cc(C[C@@H]2C[S@@+]([O-])C[C@H](NCc3cccc(C(C)(C)O)c3)[C@H]2O)cc(F)c1N)C(F)(F)F ... 1.60
6. COC[C@@H](Oc1cc(C[C@@H]2C[S@@+]([O-])C[C@H](NCc3cccc(OC(F)(F)F)c3)[C@H]2O)cc(F)c1N)C(F)(F)F ... 2.48
7. COC[C@@H](Oc1cc(C[C@@H]2C[S@@+]([O-])C[C@H](NCc3cccc(C(C)C)c3)[C@H]2O)cc(F)c1N)C(F)(F)F ... 2.84

Each recorded value in this set is attributed to ChEMBL document CHEMBL2424550.
